tested on: Plasmodium falciparum; experiment: GSK_TCMDC: Inhibition of Plasmodium falciparum 3D7 in whole red blood cells, using parasite LDH activity as an index of growth. Test compounds present at 2uM; format: functional
ENDPOINT: Inhibition (%)

> print(dat)
                                    molecule  unit.of.measurement  assay.result
 1  Cc1ccc(O)cc1Nc1ccnc2cc(-c3csc(CNCCN4CCOCC4)n3)ccc12                    %           100
 2  O=c1cc(NCCC2CC=CCN2Cc2ccc(Cl)c(Cl)c2)[nH]c2ccccc12 (configuration not stated)                    %            94
 3  O=C(NCc1ccc(Cl)c(Cl)c1)c1ccc(C2CCN(Cc3ccc4[nH]cnc4c3)CC2)cc1                    %           100
 4  Cc1c(C(=O)Nc2cc(Sc3ccc(F)cc3)cc([N+](=O)[O-])c2)sc2ncn(Cc3ccccc3F)c(=O)c12                    %            98
 5  Oc1ccc(Cl)cc1-c1cc(C(F)(F)F)nc(-c2ccccc2)n1                    %            99
 6  O=C(NCc1ccc(Cl)c(Cl)c1)c1ccc(-c2nc3ccc(Cl)cc3[nH]2)cc1                    %            96
 7         CCc1nc(N)nc(N)c1CCCOc1ccccc1Cl.Cl                    %            92
 8  Cc1cc(=NN=Cc2ccc(Cl)cc2)c2cccc(C)c2[nH]1                    %           100
 9  COC(=O)[C@@H](NC(=O)[C@H](Cc1ccc(OC)c(OC)c1)Nc1ccc(C#N)c2ccccc12)c1ccc(O)cc1.O=C(O)C(F)(F)F                    %           100
10  CCCCCCCn1c(=N)n(CC(O)c2ccc(Cl)c(Cl)c2)c2ccccc21.Cl (configuration not stated)                    %            98
11  CC1CN(Cc2ccc(-c3cccc(-c4nc5cc(F)ccc5[nH]4)c3)cc2)CC(C)O1.O=C(O)C(F)(F)F (configuration not stated)                    %            93
12  CCc1cccc(C)c1-n1nc(-c2cc(C(C)(C)C)oc2C)cc1N                    %            95
13    CCCCCN1C(=O)C(c2ccccc2)(c2ccccc2)N=C1N                    %            97
14  O=C(O)C(F)(F)F.c1ccc(CN2CCC(NCc3ccc(-c4ccc(CNC5CCCC5)cc4)cc3)CC2)cc1                    %           100
15  O=S(=O)(NC1=NCCC1)c1cccc(Nc2nc(C(F)(F)F)nc3ccccc23)c1                    %            83
16  COc1ccc(C2CCN(CCN3CCC(NC(=O)c4cccc(-c5ccncc5)c4)CC3)CC2)c(OC)c1                    %            94
17  O=C(NCc1ccco1)c1ccc(S(=O)(=O)c2ccc(Cl)cc2)cc1                    %            97
18  COc1cc(OC)c2c(c1Cl)O[C@]1(C2=O)C(=O)C(Cc2ccccc2)(Cc2ccccc2)C(=O)C[C@H]1C                    %            90
19  CN(C)Cc1ccc(O)c(-c2ccc(C(C)(C)C)cc2)n1.Cl                    %            86
20  Cc1cc(N[C@@H](CC(C)C)C(=O)NCCc2ccccc2)nc(NCc2ccccc2C)n1.O=C(O)C(F)(F)F                    %            93
21  COc1ccc2nccc([C@@H](O)CN3CCC(NC(=O)Cc4ccc(Br)c5ccccc45)CC3)c2c1                    %            98
22  O=S(=O)(Nc1cccc(CCN2CCC(N3CCCCC3)CC2)c1)c1ccc(Cl)cc1                    %            94
23  CCCCCCCN1CC[C@@H](CCCc2ccnc3ccc(OC)cc23)[C@@H](CCN)C1.O=C(O)C(=O)O                    %           100
24  NC1CCCN(Cc2cccc(-c3cccc(-c4nc5ccccc5[nH]4)c3)c2)C1.O=C(O)C(F)(F)F (configuration not stated)                    %           100
25  O=C(Nc1ccc(OC2CCN(Cc3ccc(F)cc3)CC2)c(Cl)c1)c1ccsc1.O=C(O)C(F)(F)F                    %            94
26  CC1CN(c2cnn(C/C=C/c3ccc(NC(=O)c4ccc5nonc5c4)cc3)c(=O)c2Cl)CC(C)N1.O=C(O)C(F)(F)F (configuration not stated)                    %            94
27  O=C(N[C@@H](Cc1ccccc1)C(=O)NCc1cccc(C(F)(F)F)c1)c1ccc(O)c(-c2ccc(Cl)c(Cl)c2)c1                    %            96
